molecular target: T1, cyno CLDN6 (cyno); assay: FACS, HEK293T-cyno-CLDN6 cells
T1 construct: whole, on cells; also called cynomolgus CLDN6

>  <binder>
BG87P-34 (antibody, V domains shown, Framework-swapped final lead (IGHV3-23 / IGKV1-39); also called BG87-34) VH: EVQLQESGGGLVQPGGSLRLSCAASGYSFSDYHINWVRQAPGKGLEWVGYIYPGSGHTKYNEKFKGRFTISRDTSSNTAYLQMNSLRAEDTAVYYCARSGIYHYVSSYYFDHWGQGTLVTVSS VL: DIQMTQSPSSLSASVGDRVTITCKASQDAGSAVAWYQQKPGKAPKLLIYWASTRHTGVPSRFSGSGSGTDFTLTISSLQPEDFATYYCQQYSSYTFGGGTKLEIK

>  <FACS Emax ratio to BG87P>
1 ratio

$$$$
>  <binder>
BG87P-21 (antibody, V domains shown) VH: QVQLVQSGAEVKKPGASVKVSCKASGYSFTDYHINWVRQAPGQRLEWMGWIYPGSGYTKYNEKFKGRVTITRDTSASTAYMELSSLRSEDTAVYYCARSGIYHYVSSYYFDHWGKGTTVTVSS VL: DIQMTQSPSTLSASVGDRVTITCKASQDVGTAVAWYQQKPGKAPKLLIYWASTRHTGVPSRFSGSGSGTEFTLTISSLQPDDFATYYCQQYSSYTFGGGTKVEIK

>  <FACS Emax ratio to BG87P>
0.8 ratio

$$$$
>  <binder>
BG87P-33 (antibody, V domains shown, Framework-swapped variant; also called BG87-33) VH: EVQLQESGGGLVQPGGSLRLSCAASGYSFTDYHINWVRQAPGKGLEWVSYIYPGSGHTKYNEKFKGRFTISRDTSKNTAYLQMNSLRAEDTAVYYCARSGIYHYVSSYYFDHWGQGTLVTVSS VL: DIQMTQSPSTLSASVGDRVTITCKASQDAGSAVAWYQQKPGKAPKLLIYWASTRHTGVPSRFSGSGSGTEFTLTISSLQPDDFATYYCQQYSSYTFGGGTKVEIK

>  <FACS Emax ratio to BG87P>
0.75 ratio

$$$$
>  <binder>
chimeric BG87P antibody (chBG87P) (antibody, V domains shown) VH: QIQLQQSGPELVKPGASVKISCKASGYSFTDYHINWVKQRPGQGLEWIGWIYPGSGYTKYNEKFKVKATLTVDTSSSTAYMHLTSLTSEDSAVYFCARSGIYHYVSSYYFDHWGQGTTLTVSS VL: DIVMTQSHTFMSTSVGDRVSITCKASQDVGTAVAWYQQKPGQSPKLLIYWASTRHTGVPDRFTGSGSGTDFTLTISNVQSEDLADYFCQQYSSYTFGGGTKLEIK

>  <FACS Emax ratio to BG87P>
1 ratio

$$$$
